Biological target: T1, C-terminal domain-deleted human Regnase-1 (amino acids 1 to 546) with N-terminal FLAG tag and C-terminal BirA … (human, UniProt Q5D1E8 1-546)
T1 sequence: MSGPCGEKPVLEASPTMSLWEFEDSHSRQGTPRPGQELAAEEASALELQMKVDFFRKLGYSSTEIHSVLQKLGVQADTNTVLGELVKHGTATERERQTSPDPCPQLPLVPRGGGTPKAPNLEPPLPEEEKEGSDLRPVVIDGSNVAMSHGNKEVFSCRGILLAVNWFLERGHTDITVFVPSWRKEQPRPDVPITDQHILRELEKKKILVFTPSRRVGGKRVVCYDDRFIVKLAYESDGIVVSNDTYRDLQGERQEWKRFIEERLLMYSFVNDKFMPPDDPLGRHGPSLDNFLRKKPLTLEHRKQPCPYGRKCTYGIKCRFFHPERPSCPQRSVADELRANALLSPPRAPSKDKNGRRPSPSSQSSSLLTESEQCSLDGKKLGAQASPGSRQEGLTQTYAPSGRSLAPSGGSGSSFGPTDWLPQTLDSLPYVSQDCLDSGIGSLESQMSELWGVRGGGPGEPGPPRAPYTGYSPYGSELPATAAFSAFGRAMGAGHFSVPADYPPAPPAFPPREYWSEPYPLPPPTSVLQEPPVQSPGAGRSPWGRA
Assay: cell-based or functional assay
Property Measured: 50% inhibition concentration, Regnase-1 phosphorylation by IKKβ (AlphaScreen) (µM)
Give just the number in µM; leave the unit off.

QUERY: Entry under review: XNSWYKIWGLD (HELM PEPTIDE1{[meA].N.S.W.Y.K.I.W.G.L.D.[C1CCN([*:1])C1]}$PEPTIDE1,PEPTIDE1,1:R1-11:R3$$$V2.0; SMILES CC[C@H](C)[C@@H]1NC(=O)[C@H](CCCCN)NC(=O)[C@H](Cc2ccc(O)cc2)NC(=O)[C@H](Cc2c[nH]c3ccccc23)NC(=O)[C@H](CO)NC(=O)[C@H](CC(N)=O)NC(=O)[C@H](C)N(C)C(=O)C[C@@H](C(=O)N2CCCC2)NC(=O)[C@H](CC(C)C)NC(=O)CNC(=O)[C@H](Cc2c[nH]c3ccccc23)NC1=O) [PP21] . Reported 50% inhibition concentration, Regnase-1 phosphorylation by IKKβ (AlphaScreen)?
RESULT: 39.3
